System: STAPHYLOCOCCUS AUREUS A5177
Experiment: In vitro antibacterial activity, MIC, BHI agar dilution
Assay type: cell-based
Conditions: S. aureus A5177, unit assumed
readoutName: MIC (µg/mL)
Answers are plain numbers, in µg/mL.

Required: MIC, one value per molecule below.
1. CC[C@H]1OC(=O)[C@H](C)C(=O)[C@H](C)[C@@H](O[C@@H]2O[C@H](C)C[C@H](N(C)C)[C@H]2O)[C@](C)(OC)C[C@@H](C)C2=N[C@@H]3COC[C@@H]3N3C(=O)O[C@@]1(C)[C@H]3[C@H]2C
2. CC[C@H]1OC(=O)[C@H](C)C(=O)[C@H](C)[C@@H](O[C@@H]2O[C@H](C)C[C@H](N(C)C)[C@H]2O)[C@](C)(OC)C[C@@H](C)C2=NC3CN(C(C)=O)CC3N3C(=O)O[C@@]1(C)[C@H]3[C@H]2C (stereo partly shown)
3. CC[C@H]1OC(=O)[C@H](C)C(=O)[C@H](C)[C@@H](O[C@@H]2O[C@H](C)C[C@H](N(C)C)[C@H]2O)[C@](C)(OC)C[C@@H](C)C2=NC3CN(CCc4ccc([N+](=O)[O-])cc4)CC3N3C(=O)O[C@@]1(C)[C@H]3[C@H]2C (stereo partly shown)

Result:
1: 0.78; 2: 6.2; 3: 0.2

Q: Which MIC reading was recorded for the molecule CC[C@H]1OC(=O)[C@H](C)C(=O)[C@H](C)[C@@H](O[C@@H]2O[C@H](C)C[C@H](N(C)C)[C@H]2O)[C@](C)(OC)C[C@@H](C)C2=NC[C@H](CCCc3ccccc3)N3C(=O)O[C@@]1(C)[C@H]3[C@H]2C ?
Result: 0.78

* * *

Test system: STAPHYLOCOCCUS AUREUS CMX 553
Experiment: In vitro antibacterial activity, MIC, BHI agar dilution
Type: cell-based
Conditions: S. aureus CMX 553, unit assumed
Could you please report measured MIC for the items listed next?
Could you kindly put the unit after your number?

Required: MIC, one value per compound below.
1. CC[C@H]1OC(=O)[C@H](C)C(=O)[C@H](C)[C@@H](O[C@@H]2O[C@H](C)C[C@H](N(C)C)[C@H]2O)[C@](C)(OC)C[C@@H](C)C2=NC3CN(C(C)c4ccccc4)CC3N3C(=O)O[C@@]1(C)[C@H]3[C@H]2C (stereo partly shown)
2. CC[C@H]1OC(=O)[C@H](C)C(=O)[C@H](C)[C@@H](O[C@@H]2O[C@H](C)C[C@H](N(C)C)[C@H]2O)[C@](C)(OC)C[C@@H](C)C2=NC3CNCC3N3C(=O)O[C@@]1(C)[C@H]3[C@H]2C (stereo partly shown)
3. CCC1OC(=O)C(C)C(=O)C(C)C(OC2OC(C)CC(N(C)C)C2O)C(C)(OC)CC(C)C2=NC(COCSC)CN3C(=O)OC1(C)C3C2C (stereo not shown)
4. CC[C@H]1OC(=O)[C@H](C)C(=O)[C@H](C)[C@@H](O[C@@H]2O[C@H](C)C[C@H](N(C)C)[C@H]2O)[C@](C)(OC)C[C@@H](C)C2=NC3CN(CCc4cccc([N+](=O)[O-])c4)CC3N3C(=O)O[C@@]1(C)[C@H]3[C@H]2C (stereo partly shown)

Result:
1: 0.78 µg/mL; 2: 0.78 µg/mL; 3: 0.39 µg/mL; 4: 0.2 µg/mL

* * *

Tested on: STREPTOCOCCUS BOVIS A-5169
Assay: In vitro antibacterial activity, MIC, BHI agar dilution
Format: cell-based
Conditions: S. bovis A-5169, unit assumed
readoutName: MIC (µg/mL)
One number for each entry, in µg/mL.

INSERT INTO assay_data (compound, targetsystem, unittag, measurednumber) VALUES
  ('CCC1OC(=O)C(C)C(=O)C(C)C(OC2OC(C)CC(N(C)C)C2O)C(C)(OC)CC(C)C2=NC(CN(C)C)CN3C(=O)OC1(C)C3C2C (stereo not drawn)', 'STREPTOCOCCUS BOVIS A-5169', 'µg/mL', 0.01),
  ('CC[C@H]1OC(=O)[C@H](C)C(=O)[C@H](C)[C@@H](O[C@@H]2O[C@H](C)C[C@H](N(C)C)[C@H]2O)[C@](C)(OC)C[C@@H](C)C2=NC3CN(CCc4ccc(NC(C)=O)cc4)CC3N3C(=O)O[C@@]1(C)[C@H]3[C@H]2C (stereo partly drawn)', 'STREPTOCOCCUS BOVIS A-5169', 'µg/mL', 0.02),
  ('CC[C@H]1OC(=O)[C@H](C)C(=O)[C@H](C)[C@@H](O[C@@H]2O[C@H](C)C[C@H](N(C)C)[C@H]2O)[C@](C)(OC)C[C@@H](C)C2=N[C@@H]3CN(Cc4ccccc4)C[C@@H]3N3C(=O)O[C@@]1(C)[C@H]3[C@H]2C', 'STREPTOCOCCUS BOVIS A-5169', 'µg/mL', 0.05);

Required: MIC, one value per compound below.
1. CCC1OC(=O)C(C)C(=O)C(C)C(OC2OC(C)CC(N(C)C)C2O)C(C)(OC)CC(C)C2=NC(COCSC)CN3C(=O)OC1(C)C3C2C (stereo not drawn)
2. CC[C@H]1OC(=O)[C@H](C)C(=O)[C@H](C)[C@@H](O[C@@H]2O[C@H](C)C[C@H](N(C)C)[C@H]2O)[C@](C)(OC)C[C@@H](C)C2=NC3CN(C)CC3N3C(=O)O[C@@]1(C)[C@H]3[C@H]2C (stereo partly drawn)
3. CC[C@H]1OC(=O)[C@H](C)C(=O)[C@H](C)[C@@H](O[C@@H]2O[C@H](C)C[C@H](N(C)C)[C@H]2O)[C@](C)(OC)C[C@@H](C)C2=NC3CN(C(C)c4ccccc4)CC3N3C(=O)O[C@@]1(C)[C@H]3[C@H]2C (stereo partly drawn)
4. CCC1OC(=O)C(C)C(=O)C(C)C(OC2OC(C)CC(N(C)C)C2O)C(C)(OC)CC(C)C2=NC(CCOc3ccccc3)CN3C(=O)OC1(C)C3C2C (stereo not drawn)
5. CC[C@H]1OC(=O)[C@H](C)C(=O)[C@H](C)[C@@H](O[C@@H]2O[C@H](C)C[C@H](N(C)C)[C@H]2O)[C@](C)(OC)C[C@@H](C)C2=NC[C@@H](CCCc3ccccc3)N3C(=O)O[C@@]1(C)[C@H]3[C@H]2C

Result:
1. 0.05
2. 0.02
3. 0.01
4. 0.01
5. 0.01

* * *

System: KLEBSIELLA PNEUMONIAE ATCC 8045
Assay: In vitro antibacterial activity, MIC, BHI agar dilution
Format: cell-based
Details: K. pneumoniae ATCC 8045, unit assumed
Could you please report measured MIC for the items listed next?

Study these solved cases before continuing.
INSERT INTO results (mol, readoutname, result) VALUES
  ('CC[C@H]1OC(=O)[C@H](C)[C@@H](O[C@H]2C[C@@](C)(OC)[C@@H](O)[C@H](C)O2)[C@H](C)[C@@H](O[C@@H]2O[C@H](C)C[C@H](N(C)C)[C@H]2O)[C@@H](C)C[C@@H](C)C2=NCCN3C(=O)O[C@@]1(C)[C@H]3[C@H]2C', 'MIC', '25 µg/mL'),
  ('CC[C@H]1OC(=O)[C@H](C)C(=O)[C@H](C)[C@@H](O[C@@H]2O[C@H](C)C[C@H](N(C)C)[C@H]2O)[C@](C)(OC)C[C@@H](C)C2=NC[C@H](Cc3cscn3)N3C(=O)O[C@@]1(C)[C@H]3[C@H]2C', 'MIC', '> 100 µg/mL'),
  ('CC[C@H]1OC(=O)[C@H](C)C(=O)[C@H](C)[C@@H](O[C@@H]2O[C@H](C)C[C@H](N(C)C)[C@H]2O)[C@](C)(OC)C[C@@H](C)C2=N[C@H](CN(C)Cc3ccccc3)CN3C(=O)O[C@@]1(C)[C@H]3[C@H]2C', 'MIC', '> 100 µg/mL');

As a next step, examine the compound that follows.
Q: Which MIC reading was recorded for the compound CC[C@H]1OC(=O)[C@H](C)C(=O)[C@H](C)[C@@H](O[C@@H]2O[C@H](C)C[C@H](N(C)C)[C@H]2O)[C@](C)(OC)C[C@@H](C)C2=N[C@@H]3CCCC[C@@H]3N3C(=O)O[C@@]1(C)[C@H]3[C@H]2C ?
Result: 100 µg/mL

* * *

Could you please report measured MIC for the items listed next?
System: STREPTOCOCCUS PYOGENES PIU 2548
Experiment: In vitro antibacterial activity, MIC, BHI agar dilution
Assay type: cell-based
Settings: S. pyogenes PIU 2548, unit assumed
Numbers only, in µg/mL.

INSERT INTO measurements (compound, readoutname, measurednumber) VALUES
  ('CC[C@H]1OC(=O)[C@H](C)C(=O)[C@H](C)[C@@H](O[C@@H]2O[C@H](C)C[C@H](N(C)C)[C@H]2O)[C@](C)(OC)C[C@@H](C)C2=NCC(COC(=O)c3ccccc3)N3C(=O)O[C@@]1(C)[C@H]3[C@H]2C (stereo partly shown)', 'MIC', 0.39);

Required: MIC, one value per compound below.
1. CC[C@H]1OC(=O)[C@H](C)C(=O)[C@H](C)[C@@H](O[C@@H]2O[C@H](C)C[C@H](N(C)C)[C@H]2O)[C@](C)(OC)C[C@@H](C)C2=N[C@H](COCc3cccnc3)CN3C(=O)O[C@@]1(C)[C@H]3[C@H]2C
2. CC[C@H]1OC(=O)[C@H](C)C(=O)[C@H](C)[C@@H](O[C@@H]2O[C@H](C)C[C@H](N(C)C)[C@H]2O)[C@](C)(OC)C[C@@H](C)C2=NC[C@H](COCc3ccc(OC)cc3)N3C(=O)O[C@@]1(C)[C@H]3[C@H]2C
3. CC[C@H]1OC(=O)[C@H](C)C(=O)[C@H](C)[C@@H](O[C@@H]2O[C@H](C)C[C@H](N(C)C)[C@H]2O)[C@](C)(OC)C[C@@H](C)C2=N[C@H](CN(C)Cc3ccccc3)CN3C(=O)O[C@@]1(C)[C@H]3[C@H]2C

Result:
1: 0.39; 2: 0.2; 3: 0.39
